The values you see were collected from patent US12268694B2.

Some compounds, each annotated with its measured pEC50.
- Tested on: RSV genotype B, strain 9320
- EXPERIMENT: RSV-B assay: A549 cells infected with RSV-B, qPCR or ATPlite readout
- Format: cell-based
- MEASUREMENT CONTEXT: human respiratory syncytial virus, A549, 144 h, read-out: Human RSV-B EC50
pEC50: −log10 of the molar value.
OBSERVATION TYPE: pEC50

COMPOUND: O=C1Nc2ccccc2C(c2ccccc2)=N[C@@H]1Nc1nnc(-c2ccc(C(F)(F)F)nc2N2CC3CCC(C2)O3)o1
VALUE OBSERVED: < 6.10
//
COMPOUND: COC1CCN(c2cc(C(F)(F)F)cnc2-c2nnc(N[C@H]3N=C(c4ccccc4)c4ccccc4NC3=O)o2)CC1
VALUE OBSERVED: 6.10 to 6.40
//
COMPOUND: C[C@H]1CN(c2cc(C(F)(F)F)cnc2-c2nnc(N[C@H]3N=C(c4ccccc4)c4ccccc4NC3=O)o2)CCO1
VALUE OBSERVED: > 6.40
//
COMPOUND: O=C1Nc2ccccc2C(c2ccccc2)=N[C@@H]1Nc1nnc(-c2nc(C(F)(F)F)sc2N2CCOCC2)o1
VALUE OBSERVED: > 6.40
//
COMPOUND: O=C1Nc2ccccc2C(c2ccccc2)=N[C@@H]1Nc1nnc(-c2cccnc2N2CCOCC2)o1
VALUE OBSERVED: > 6.40
//
COMPOUND: C[C@H]1CN(c2ncccc2-c2nnc(NC3N=C(c4ccccc4)c4ccccc4NC3=O)o2)CCO1 (stereo partly shown)
VALUE OBSERVED: 6.10 to 6.40
//
COMPOUND: O=C1Nc2c(F)cccc2C(c2ccccc2)=N[C@@H]1Nc1nnc(-c2ccccc2N2CCOCC2)o1 [Example 355a]
VALUE OBSERVED: > 6.40

---

- Test system: HEp-2 cells
- EXPERIMENT: Cytotoxicity in parallel to the RSV-A assay (no virus), ATPlite readout
- Format: cell-based, human
OBSERVATION TYPE: CC50

COMPOUND: O=C1Nc2ccccc2C(c2ccccc2)=NC1Nc1nnc(-c2ccc(=O)[nH]c2)o1 (stereo not shown)
OBSERVATION TYPE: CC50
VALUE OBSERVED: > 50 µM
//
COMPOUND: O=C1Nc2ccccc2C(c2ccccc2)=NC1Nc1nc2c(F)cccc2o1 (stereo not shown)
OBSERVATION TYPE: CC50
VALUE OBSERVED: > 50 µM
//
COMPOUND: COCc1cccc(-c2nnc(NC3N=C(c4ccccc4)c4ccccc4NC3=O)o2)n1 (stereo not shown)
OBSERVATION TYPE: CC50
VALUE OBSERVED: > 50 µM
//
COMPOUND: Cn1cnc(-c2nnc(NC3N=C(c4ccccc4)c4ccccc4NC3=O)o2)c1 (stereo not shown)
OBSERVATION TYPE: CC50
VALUE OBSERVED: > 50 µM

---

Some molecules, each annotated with its measured EC50.
- Tested on: RSV genotype B, strain 9320
- EXPERIMENT: RSV-B assay: A549 cells infected with RSV-B, qPCR or ATPlite readout
- Type: cell-based
- MEASUREMENT CONTEXT: human respiratory syncytial virus, A549, 144 h, read-out: Human RSV-B EC50

MOLECULE: O=C1Nc2ccccc2C(c2ccccc2)=NC1Nc1nnc(-c2ccc(-n3cccn3)cc2)[nH]1 (centres unmarked) [Example 364]
TARGET ENTITY: RSV genotype B, strain 9320
EC50: 400 to 800 nM

MOLECULE: O=C1Nc2ccccc2C(c2ccccc2)=N[C@@H]1Nc1nnc(-c2ncc(Br)cc2N2CCOCC2)o1 [Example 168]
TARGET ENTITY: RSV genotype B, strain 9320
EC50: < 400 nM

MOLECULE: O=C1Nc2ccccc2C(c2ccccc2)=N[C@@H]1Nc1nnc(-c2nc(-c3cccnc3)sc2N2CCOCC2)o1 [Example 388]
TARGET ENTITY: RSV genotype B, strain 9320
EC50: < 400 nM

MOLECULE: O=C1Nc2ccccc2C(c2ccccc2)=N[C@@H]1Nc1nnc(-c2nc(C3CCC3)sc2N2CCOCC2)o1 [Example 387]
TARGET ENTITY: RSV genotype B, strain 9320
EC50: < 400 nM

MOLECULE: N#Cc1cnc(-c2nnc(N[C@H]3N=C(c4ccccc4)c4ccccc4NC3=O)o2)c(N2CCOCC2)c1 [Example 160]
TARGET ENTITY: RSV genotype B, strain 9320
EC50: < 400 nM

MOLECULE: Cc1nc(-c2nnc(N[C@H]3N=C(c4ccccc4)c4ccccc4NC3=O)o2)c(N2CCOCC2)s1 [Example 272]
TARGET ENTITY: RSV genotype B, strain 9320
EC50: < 400 nM

MOLECULE: O=C1Nc2ccccc2C(c2ccccc2)=NC1Nc1nnc(-c2ccc(C(F)(F)F)cc2N2CCOCC2)o1 (centres unmarked) [Example 123]
TARGET ENTITY: RSV genotype B, strain 9320
EC50: 400 to 800 nM

MOLECULE: O=C1Nc2ccccc2C(c2ccccc2)=N[C@@H]1Nc1nnc(-c2oc3ccccc3c2N2CCOCC2)o1 [Example 179]
TARGET ENTITY: RSV genotype B, strain 9320
EC50: < 400 nM

---

- Tested on: HEp-2 cells
- EXPERIMENT: Cytotoxicity in parallel to the RSV-A assay (no virus), ATPlite readout
- Assay type: cell-based, human
Some molecules, each annotated with its measured CC50.
OBSERVATION TYPE: CC50

MOLECULE: O=C1Nc2ccccc2C(c2ccccc2)=NC1Nc1nnc(-c2ccncn2)o1 (centres unmarked) [Example 63]
TARGET ENTITY: HEp-2 cells
VALUE OBSERVED: > 50 µM

MOLECULE: O=C1Nc2ccccc2C(c2ccccc2)=NC1Nc1nc(N2CCOCC2)ns1 (centres unmarked) [Example 88]
TARGET ENTITY: HEp-2 cells
VALUE OBSERVED: 10 to 50 µM

MOLECULE: O=C1Nc2ccccc2C(c2ccccc2)=NC1Nc1nnc(-c2ccccc2)o1 (centres unmarked) [Example 2]
TARGET ENTITY: HEp-2 cells
VALUE OBSERVED: > 50 µM

MOLECULE: COCc1ccc(-c2nnc(NC3N=C(c4ccccc4)c4ccccc4NC3=O)o2)o1 (centres unmarked) [Example 72]
TARGET ENTITY: HEp-2 cells
VALUE OBSERVED: > 50 µM

MOLECULE: Cc1cc(-c2nnc(NC3N=C(c4ccccc4)c4ccccc4NC3=O)o2)on1 (centres unmarked) [Example 74]
TARGET ENTITY: HEp-2 cells
VALUE OBSERVED: > 50 µM

MOLECULE: O=C1Nc2ccccc2C(c2ccccc2)=NC1Nc1nnc(-c2ccncc2)o1 (centres unmarked) [Example 61]
TARGET ENTITY: HEp-2 cells
VALUE OBSERVED: > 50 µM

MOLECULE: O=C1Nc2ccccc2C(c2ccccc2)=NC1Nc1nnc(-c2cscn2)o1 (centres unmarked) [Example 77]
TARGET ENTITY: HEp-2 cells
VALUE OBSERVED: > 50 µM

MOLECULE: O=C1Nc2ccccc2C(c2ccccc2)=NC1Nc1nc(-c2ccccc2)cs1 (centres unmarked) [Example 90]
TARGET ENTITY: HEp-2 cells
VALUE OBSERVED: < 10 µM

---

- EXPERIMENT: Cytotoxicity in parallel to the RSV-A assay (no virus), ATPlite readout
- Format: cell-based, human
- MEASUREMENT CONTEXT: human, HEp-2 cells (uninfected)

COMPOUND: O=C1Nc2ccccc2C(c2ccccc2)=NC1Nc1nnc(-c2ccc3ncsc3c2)o1 (stereo not shown)
CC50 at 5 days: > 50 µM
